System: wheat (Triticum aestivum)
Experiment: Test A pre-/postemergence greenhouse herbicide test
Type: in vivo
Conditions: Triticum aestivum, post-emergence, 240 h; Postemergence, 125 g ai/ha; 0 to 100 scale (0 no effect, 100 complete control), approx. 10 d; read-out: Plant response rating, Wheat
assay-readout: plant injury at 125 g/ha (%)
Give a bare numeral; the unit % is implied.

## Task Requested read-out: plant injury at 125 g/ha. Entry: Cc1cc(Oc2ccnc(C(F)(F)F)c2)nn(-c2ccc(C(F)(F)F)cc2)c1=O
## Result 40

## Task Requested read-out: plant injury at 125 g/ha. Entry: Cc1cc(=O)n(-c2ccc(C(F)(F)F)cc2)nc1Cc1ccnc(C(F)(F)F)c1
## Result 40

## Task Requested read-out: plant injury at 125 g/ha. Entry: Cc1cc(=O)n(-c2ccc(F)cc2)nc1Oc1ccnc(C(F)(F)F)c1
## Result 40

* * *

Test system: barnyardgrass (Echinochloa crus-galli)
Test: Test C pre-/postemergence greenhouse herbicide test
Type: in vivo
Conditions: Barnyardgrass; Postemergence; 31 g ai/ha
assay-readout: Plant response rating
Answer with a bare number; do not write a unit.

## Task Reported Plant response rating for barnyardgrass (Echinochloa crus-galli), given Cc1cc(=O)n(-c2ccc(C(F)(F)F)cc2)nc1Cc1ccnc(C(F)(F)F)c1 ?
## Result 5

## Task Reported Plant response rating for barnyardgrass (Echinochloa crus-galli), given COc1cc(=O)n(-c2ccc(F)cc2)nc1Cc1ccnc(C(F)(F)F)c1 ?
## Result 5

## Task Reported Plant response rating for barnyardgrass (Echinochloa crus-galli), given Cc1cc(Oc2ccnc(C(F)(F)F)c2)nn(-c2ccc(C(F)(F)F)cc2)c1=O ?
## Result 10

## Task Reported Plant response rating for barnyardgrass (Echinochloa crus-galli), given COc1cc(=O)n(-c2ccc(C(F)(F)F)cc2)nc1Cc1ccnc(C(F)(F)F)c1 ?
## Result 10

* * *

Test system: crabgrass, Large (large crabgrass, Digitaria sanguinalis)
Assay: Test C pre-/postemergence greenhouse herbicide test
Type: in vivo
Settings: Digitaria sanguinalis, post-emergence; Crabgrass, Large; Postemergence; 62 g ai/ha; read-out: Plant response rating
assay-readout: pest or weed control at 62 g/ha (%)
Give a bare numeral; the unit % is implied.

## Task Requested read-out: pest or weed control at 62 g/ha. Entry: Cc1cc(=O)n(-c2ccc(C(F)(F)F)cc2)nc1Cc1ccnc(C(F)(F)F)c1
## Result 5

## Task Requested read-out: pest or weed control at 62 g/ha. Entry: COc1cc(=O)n(-c2ccc(F)cc2)nc1Cc1ccnc(C(F)(F)F)c1
## Result 10

## Task Requested read-out: pest or weed control at 62 g/ha. Entry: Cc1cc(=O)n(-c2ccc(F)cc2)nc1Oc1ccnc(C(F)(F)F)c1
## Result 10

## Task Requested read-out: pest or weed control at 62 g/ha. Entry: Cc1cc(Oc2ccnc(C(F)(F)F)c2)nn(-c2ccc(C(F)(F)F)cc2)c1=O
## Result 20

* * *

Would you mind telling me the reported pest or weed control at 125 g/ha of each entry?
Test system: crabgrass, Large (large crabgrass, Digitaria sanguinalis)
Test: Test A pre-/postemergence greenhouse herbicide test
Type: in vivo
Settings: Digitaria sanguinalis, pre-emergence, 240 h; Preemergence, 125 g ai/ha; 0 to 100 scale (0 no effect, 100 complete control), approx. 10 d; read-out: Plant response rating, Crabgrass, Large
Give a bare numeral; the unit % is implied.

## Task Reported pest or weed control at 125 g/ha for crabgrass, Large (large crabgrass, Digitaria sanguinalis), given Cc1cc(=O)n(-c2ccc(F)cc2)nc1Oc1ccnc(C(F)(F)F)c1 ?
## Result 90

## Task Reported pest or weed control at 125 g/ha for crabgrass, Large (large crabgrass, Digitaria sanguinalis), given Cc1cc(=O)n(-c2ccc(C(F)(F)F)cc2)nc1Oc1ccnc(C(F)(F)F)c1 ?
## Result 100

## Task Reported pest or weed control at 125 g/ha for crabgrass, Large (large crabgrass, Digitaria sanguinalis), given CCOc1cc(=O)n(-c2ccc(F)cc2)nc1C(O)c1ccnc(C(F)(F)F)c1 (centres unmarked) ?
## Result 100

## Task Reported pest or weed control at 125 g/ha for crabgrass, Large (large crabgrass, Digitaria sanguinalis), given COc1cc(=O)n(-c2ccc(C(F)(F)F)cc2)nc1Cc1ccnc(C(F)(F)F)c1 ?
## Result 100

## Task Reported pest or weed control at 125 g/ha for crabgrass, Large (large crabgrass, Digitaria sanguinalis), given Cc1cc(=O)n(-c2ccc(C(F)(F)F)cc2)nc1Cc1ccnc(C(F)(F)F)c1 ?
## Result 100

Source: patent US10202361B2
